- Tested on: wheat
- procedure_details: Test C preemergence/postemergence greenhouse plant response rating 0 to 100
- Format: in vivo, Triticum aestivum
- condition: POSTEMERGENCE; Rate 4 g/ha
readout_kind: Plant response rating (0 to 100), Wheat

>>> assay_value("C#CCOc1cc(-c2nn3c(c2Br)CCCC3)c(F)cc1Cl")
20
>>> assay_value("CC(C)N1C(=O)COc2cc(F)c(-c3nn4c(c3Cl)CCCC4)cc21")
30
>>> assay_value("COCN1C(=O)COc2cc(F)c(-c3nn4c(c3Br)CCCC4)cc21")
30
>>> assay_value("COCN1C(=O)COc2cc(F)c(-c3nn4c(c3Cl)CCCC4)cc21")
40
>>> assay_value("CC(C)OC(=O)c1cc(-c2nn3c(c2Cl)CCCC3)c(F)cc1Cl")
20

# input for lookup
Input line: Can you look up the measured Plant response rating (0 to 100), Wheat of CC(C)COc1cc(-c2nn3c(c2Cl)CCCC3)c(F)cc1Cl for me?
Output line: 20

----------
- Test system: sorghum
- procedure_details: Test C preemergence/postemergence greenhouse plant response rating 0 to 100
- Format: in vivo, Sorghum bicolor
- condition: POSTEMERGENCE, 62 g/ha, 0 to 100 scale
- Text: The compounds evaluated in this test were formulated in a non-phytoxic solvent and applied to the soil surface before plant seedlings emerged (preemergence application), to water that covered the soil surface (flood application), and to plants that were in the one-to-four leaf stage (postemergence application). A sandy loam soil was used for the preemergence and postemergence tests, while a silt loam soil was used in the flood test. […]
readout_kind: Plant response rating, Sorghum
Just the number, please.

>>> assay_value("C#CC(C)Oc1cc(-c2nn3c(c2Cl)CCCC3)c(F)cc1Cl (stereo not drawn) [Compound 36]")
60

Input line: Tell me the measured Plant response rating, Sorghum of C#CC(C)N1C(=O)COc2cc(F)c(-c3nn4c(c3Cl)CCCC4)cc21 (stereo not drawn) [Compound 50] , please.
Output line: 50

Input line: # Plant response rating, Sorghum lookup, item CCC(C)Oc1cc(-c2nn3c(c2Cl)CCCC3)c(F)cc1Cl (stereo not drawn) [Compound 48]
Output line: 50

Input line: I'd like to know its Plant response rating, Sorghum. The compound in question is CC(C)Oc1cc(-c2nn3c(c2Br)CCCC3)c(F)cc1Cl [Compound 38]
Output line: 70

Input line: So what does the record say about Plant response rating, Sorghum for CC(C)N1C(=O)COc2cc(F)c(-c3nn4c(c3Cl)CCCC4)cc21 [Compound 31] ?
Output line: 50

Input line: Item under review: COCN1C(=O)COc2cc(F)c(-c3nn4c(c3Cl)CCCC4)cc21 [Compound 55] . Reported Plant response rating, Sorghum?
Output line: 60

----------
- System: rape
- procedure_details: Test C preemergence/postemergence greenhouse plant response rating 0 to 100
- Assay type: in vivo, Brassica napus
- condition: POSTEMERGENCE; Rate 4 g/ha
// label = Fulfilled if Plant response rating (0 to 100), Rape is not less than 80, otherwise Not fulfilled

Take a look at these entries with their results.
>>> group("COc1cc(-c2nn3c(c2Cl)CCCC3)c(F)cc1Cl [Compound 29]")
"Fulfilled"
>>> group("CC(C)N1C(=O)COc2cc(F)c(-c3nn4c(c3Cl)CCCC4)cc21 [Compound 31]")
"Not fulfilled"

Input line: Could you please find out whether COCN1C(=O)COc2cc(F)c(-c3nn4c(c3Br)CCCC4)cc21 [Compound 67] has Plant response rating (0 to 100), Rape that meets 80 or exceeds it?
Output line: Not fulfilled

Input line: Entry CCN1C(=O)COc2cc(F)c(-c3nn4c(c3Cl)CCCC4)cc21 [Compound 54] : is its Plant response rating (0 to 100), Rape no less than 80?
Output line: Not fulfilled

Input line: Quick check: does C#CCN1C(=O)COc2cc(F)c(-c3nn4c(c3Cl)CCCC4)cc21 [Compound 34] have Plant response rating (0 to 100), Rape greater than or equal to 80?
Output line: Fulfilled

// data source = patent US6358885B1
